All values here come from patent US20100168102A9.

Recorded measurements of IC50, one per entry
# subject.of.test: PKC epsilon (Homo sapiens, UniProt Q02156)
# Construct: purchased Invitrogen P2282
# Sequence (Q02156 1-737): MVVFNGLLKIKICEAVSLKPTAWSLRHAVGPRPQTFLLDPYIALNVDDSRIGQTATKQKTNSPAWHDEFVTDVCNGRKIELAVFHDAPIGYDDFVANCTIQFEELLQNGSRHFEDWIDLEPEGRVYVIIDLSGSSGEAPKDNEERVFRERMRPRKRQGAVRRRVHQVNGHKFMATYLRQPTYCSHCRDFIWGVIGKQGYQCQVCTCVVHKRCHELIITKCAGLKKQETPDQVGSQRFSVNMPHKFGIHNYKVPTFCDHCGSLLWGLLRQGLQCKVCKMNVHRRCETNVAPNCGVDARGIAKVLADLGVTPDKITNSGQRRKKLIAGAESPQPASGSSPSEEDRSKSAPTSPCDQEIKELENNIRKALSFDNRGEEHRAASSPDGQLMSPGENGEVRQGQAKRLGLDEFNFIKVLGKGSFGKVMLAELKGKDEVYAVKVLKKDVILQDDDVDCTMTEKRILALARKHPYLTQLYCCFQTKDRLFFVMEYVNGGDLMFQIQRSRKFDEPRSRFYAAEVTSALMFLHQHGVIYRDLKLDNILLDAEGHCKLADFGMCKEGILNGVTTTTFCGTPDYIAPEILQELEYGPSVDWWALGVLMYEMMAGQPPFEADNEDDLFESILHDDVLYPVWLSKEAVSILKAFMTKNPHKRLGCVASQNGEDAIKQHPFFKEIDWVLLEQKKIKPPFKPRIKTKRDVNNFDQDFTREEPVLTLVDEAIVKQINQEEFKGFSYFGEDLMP
# assay.explanation: Biochemical assay for PKC epsilon (fluorescence polarization, Protein Kinase C Assay Kit, Red)
# test.context: Table 2, compounds of Formula XIII; read-out: IC50 μM PKCε

Please review the entries below; each comes with its answer.
{"compound": "N#Cc1cccc(C(=O)NCC(N)c2ccc(C(=O)Nc3ccncc3)cc2)c1 (stereo not drawn)", "subject.of.test": "PKC epsilon (Homo sapiens, UniProt Q02156)", "IC50": "0.5 to 5 µM"}
{"compound": "N#CCC(=O)NCC(N)c1ccc(C(=O)Nc2ccncc2)cc1 (stereo not drawn)", "subject.of.test": "PKC epsilon (Homo sapiens, UniProt Q02156)", "IC50": "0.5 to 5 µM"}
{"compound": "CCOCC(=O)NCC(N)c1ccc(C(=O)Nc2ccncc2)cc1 (stereo not drawn)", "subject.of.test": "PKC epsilon (Homo sapiens, UniProt Q02156)", "IC50": "5 to 50 µM"}
{"compound": "CC(C)(C(=O)NCC(N)c1ccc(C(=O)Nc2ccncc2)cc1)c1ccc(F)cc1 (stereo not drawn)", "subject.of.test": "PKC epsilon (Homo sapiens, UniProt Q02156)", "IC50": "< 0.05 µM"}
{"compound": "NC(CNC(=O)c1ccnc2ccccc12)c1ccc(C(=O)Nc2ccncc2)cc1 (stereo not drawn)", "subject.of.test": "PKC epsilon (Homo sapiens, UniProt Q02156)", "IC50": "0.5 to 5 µM"}
{"compound": "CCC(C)C(=O)NCC(N)c1ccc(C(=O)Nc2ccncc2)cc1 (stereo not drawn)", "subject.of.test": "PKC epsilon (Homo sapiens, UniProt Q02156)", "IC50": "0.5 to 5 µM"}
{"compound": "CCN(CC)c1ccc(C(=O)NCC(N)c2ccc(C(=O)Nc3ccncc3)cc2)cc1 (stereo not drawn)", "subject.of.test": "PKC epsilon (Homo sapiens, UniProt Q02156)", "IC50": "5 to 50 µM"}
{"compound": "NC(CNC(=O)c1cc2cc(Cl)ccc2o1)c1ccc(C(=O)Nc2ccncc2)cc1 (stereo not drawn)", "subject.of.test": "PKC epsilon (Homo sapiens, UniProt Q02156)", "IC50": "5 to 50 µM"}

Request: Look up and report measured IC50 (PKC epsilon (Homo sapiens, UniProt Q02156)) for the following compound: Cc1ccc(C)c(CC(=O)NCC(N)c2ccc(C(=O)Nc3ccncc3)cc2)c1 (stereo not drawn)
Result: 0.5 to 5 µM

Request: Look up and report IC50, with PKC epsilon (Homo sapiens, UniProt Q02156) as system, for NC(CNC(=O)Cc1ccccc1)c1ccc(C(=O)Nc2ccncc2)cc1 (stereo not drawn)
Result: 0.05 to 0.5 µM

* * *

# subject.of.test: PKC epsilon (Homo sapiens, UniProt Q02156)
# Construct: purchased Invitrogen P2282
# assay.explanation: Biochemical assay for PKC epsilon (fluorescence polarization, Protein Kinase C Assay Kit, Red)
# test.context: read-out: IC50 μM PKCε
The reader will find reported IC50 values listed item by item below.

{"compound": "NC(CNC(=O)Nc1ccc(Cl)cc1)c1ccc(C(=O)Nc2ccncc2)cc1 (stereo not shown) [Compound 326]", "IC50": "0.05 to 0.5 µM"}

Request: Please supply the value of reported IC50 for the item Cc1cc(Cl)ccc1NC(=O)NCC(N)c1ccc(C(=O)Nc2ccncc2)cc1 (stereo not shown) [Compound 26]
Result: 0.05 to 0.5 µM

Request: Give the reported value of IC50 for this record: Cc1ccccc1CC(=O)N(C)CC(N)c1ccc(C(=O)Nc2ccncc2)cc1 (stereo not shown) [Compound 422]
Result: 5 to 50 µM

Request: Tell me measured IC50 for CC(C)(C)c1ccc(NC(=S)NCC(N)c2ccc(C(=O)Nc3ccncc3)cc2)cc1 (stereo not shown) [Compound 18] please.
Result: 5 to 50 µM

Request: For NC(c1ccc(C(=O)Nc2ccncc2)cc1)C1CCCN1C(=O)C(c1ccccc1)C1CCCC1 (stereo not shown) [Compound 556] , write its IC50.
Result: 5 to 50 µM

Request: Please give measured IC50 of the following entry: CN(CC(N)c1ccc(C(=O)Nc2ccncc2)cc1)C(=O)C1CCCc2ccccc21 (stereo not shown) [Compound 512]
Result: 5 to 50 µM

* * *

# subject.of.test: human ROCKα/ROCKII mix (Homo sapiens)
# Construct: purchased Upstate Biotechnology 14-451
# Sequence (O75116 11-552 limits assumed): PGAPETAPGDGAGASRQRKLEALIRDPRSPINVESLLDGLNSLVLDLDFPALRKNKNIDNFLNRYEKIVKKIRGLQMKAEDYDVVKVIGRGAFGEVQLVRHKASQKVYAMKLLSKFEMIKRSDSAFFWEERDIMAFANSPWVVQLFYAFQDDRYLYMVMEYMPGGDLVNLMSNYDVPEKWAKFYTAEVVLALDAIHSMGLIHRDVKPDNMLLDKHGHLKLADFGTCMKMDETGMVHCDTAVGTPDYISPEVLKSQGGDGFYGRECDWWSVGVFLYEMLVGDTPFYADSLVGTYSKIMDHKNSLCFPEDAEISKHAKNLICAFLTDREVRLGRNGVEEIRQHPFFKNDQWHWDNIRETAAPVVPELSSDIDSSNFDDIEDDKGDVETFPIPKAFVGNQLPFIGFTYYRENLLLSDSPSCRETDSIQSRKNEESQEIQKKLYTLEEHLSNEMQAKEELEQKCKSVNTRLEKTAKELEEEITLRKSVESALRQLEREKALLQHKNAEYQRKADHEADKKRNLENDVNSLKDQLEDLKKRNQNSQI
# assay.explanation: Biochemical assay for ROCK (fluorescence polarization, ROCK IMAP Kit)
# test.context: Table 2, compounds of Formula XIII
Listed below: IC50 values for each entry.

{"compound": "CC(C)(C(=O)NCC(N)c1ccc(C(=O)Nc2ccncc2)cc1)c1ccc(Cl)cc1F (stereo not shown) [Compound 388]", "IC50": "0.05 to 0.5 µM"}
{"compound": "NC(CNC(=O)CNC(=O)c1ccccc1)c1ccc(C(=O)Nc2ccncc2)cc1 (stereo not shown) [Compound 55]", "IC50": "0.05 to 0.5 µM"}
{"compound": "COc1cccc2cc(C(=O)NCC(N)c3ccc(C(=O)Nc4ccncc4)cc3)oc12 (stereo not shown) [Compound 133]", "IC50": "0.05 to 0.5 µM"}
{"compound": "NC(CNC(=O)c1cc2cc(Cl)ccc2o1)c1ccc(C(=O)Nc2ccncc2)cc1 (stereo not shown) [Compound 134]", "IC50": "0.5 to 5 µM"}
{"compound": "NC(CNC(=O)c1ccccc1Nc1ccccc1)c1ccc(C(=O)Nc2ccncc2)cc1 (stereo not shown) [Compound 82]", "IC50": "0.5 to 5 µM"}

Request: Identify IC50 associated with the compound CCC(C)C(=O)NCC(N)c1ccc(C(=O)Nc2ccncc2)cc1 (stereo not shown) [Compound 35]
Result: 0.5 to 5 µM

Request: Tell me IC50 reported for NC(CNC(=O)C1CCCCC1)c1ccc(C(=O)Nc2ccncc2)cc1 (stereo not shown) [Compound 43]
Result: 0.5 to 5 µM

Request: Given NC(CNC(=O)c1cc2cc(F)ccc2[nH]1)c1ccc(C(=O)Nc2ccncc2)cc1 (stereo not shown) [Compound 129] , respond with its IC50.
Result: 0.5 to 5 µM

* * *

# subject.of.test: PKC epsilon (Homo sapiens)
# Construct: purchased Invitrogen P2282
# assay.explanation: Biochemical assay for PKC epsilon (fluorescence polarization, Protein Kinase C Assay Kit, Red)
# test.context: compounds of Formula XIV, Table 3; read-out: IC50 μM PKCε
Parameter: IC50. Scope: all listed entries.

{"compound": "NC(CC(=O)NC1CCCc2sccc21)c1ccc(C(=O)Nc2ccncc2)cc1 (centres unmarked)", "IC50": "0.05 to 0.5 µM"}
{"compound": "COc1ccc(NC(=O)CC(N)c2ccc(C(=O)Nc3ccncc3)cc2)cc1 (centres unmarked)", "IC50": "0.5 to 5 µM"}
{"compound": "CN(CCO)C(=O)CC(N)c1ccc(C(=O)Nc2ccncc2)cc1 (centres unmarked)", "IC50": "0.5 to 5 µM"}
{"compound": "NC(CC(=O)NCc1ccccc1)c1ccc(C(=O)Nc2ccncc2)cc1 (centres unmarked)", "IC50": "0.5 to 5 µM"}
{"compound": "CCNC(=O)CC(N)c1ccc(C(=O)Nc2ccncc2)cc1 (centres unmarked)", "IC50": "0.5 to 5 µM"}

Request: State recorded IC50 with PKC epsilon (Homo sapiens), entry NC(CC(=O)NC1CCc2ccccc21)c1ccc(C(=O)Nc2ccncc2)cc1 (centres unmarked) , no comment.
Result: 0.05 to 0.5 µM

Request: Give IC50 only, for NC(CC(=O)NC(c1ccc(Cl)cc1)C1CC1)c1ccc(C(=O)Nc2ccncc2)cc1 (centres unmarked) , using PKC epsilon (Homo sapiens) data.
Result: 0.5 to 5 µM

Request: Report IC50 from PKC epsilon (Homo sapiens) testing of CS(=O)(=O)NCCNC(=O)CC(N)c1ccc(C(=O)Nc2ccncc2)cc1 (centres unmarked)
Result: 0.5 to 5 µM

Request: Report value only: IC50, PKC epsilon (Homo sapiens), CC(C)(Cc1ccc(F)cc1)NC(=O)CC(N)c1ccc(C(=O)Nc2ccncc2)cc1 (centres unmarked)
Result: 0.05 to 0.5 µM

Request: Report the value of IC50 obtained on PKC epsilon (Homo sapiens) for Cc1ccccc1CNC(=O)CC(N)c1ccc(C(=O)Nc2ccncc2)cc1 (centres unmarked) .
Result: 0.5 to 5 µM

Request: Using PKC epsilon (Homo sapiens) as the test system, report measured IC50 of CN(C)CCNC(=O)CC(N)c1ccc(C(=O)Nc2ccncc2)cc1 (centres unmarked) .
Result: 0.5 to 5 µM

Request: Look up PKC epsilon (Homo sapiens) data: IC50 of NC(CC(=O)NCCc1ccc(Cl)c(Cl)c1)c1ccc(C(=O)Nc2ccncc2)cc1 (centres unmarked) , then report it.
Result: 0.5 to 5 µM

Request: Supply IC50 measured with PKC epsilon (Homo sapiens) for COc1ccc(CCNC(=O)CC(N)c2ccc(C(=O)Nc3ccncc3)cc2)cc1OC (centres unmarked) .
Result: 5 to 50 µM

Request: Lab note: record IC50 of CS(=O)(=O)c1ccc(CNC(=O)CC(N)c2ccc(C(=O)Nc3ccncc3)cc2)cc1 (centres unmarked) tested on PKC epsilon (Homo sapiens).
Result: 0.5 to 5 µM

Request: Write down measured IC50 (PKC epsilon (Homo sapiens)) for this compound. Cc1cccc(CN2CCC(NC(=O)CC(N)c3ccc(C(=O)Nc4ccncc4)cc3)CC2)c1 (centres unmarked)
Result: 0.5 to 5 µM
